# system.name: SARS-COV-2 RBD-MMH (SARS-COV-2 RBD extracellular domain with C-terminal myc-myc-hexahistidine tag) (SARS-CoV-2)
Collected t½ at pH 7.4 values appear next to each entry.
Return type: number; implicit unit min.

Illustrative cases are given below, each with its answer.
[
  {
    "binder": "mAb15165 (antibody, V domains shown) VH: EVQLVESGGGLVQPGGSLRLSCAASGFTVSSNYMSWVRQAPGKGLEWVSAIYSGDSTYYADSVKGRFTISKDNSKNTLYLQMNSLRGEDTAVYYCARLGGALQAYDGAFDYWGQGTLATVSS VL: QSALTQPASVSGSPGQSITISCTGTSSDFGSYNLVSWYQQHPGKAPKLMIYEGNKRPSGVSIRFSGSKSGNTASLTISGLQAEDEADYYCSSYAGSSTWVFGGGTKLTVLG",
    "t½ at pH 7.4 [min]": 7.1
  },
  {
    "binder": "mAb14285 (antibody, V domains shown) VH: QVQLVQSGAEVKKPGASVKVSCKASGYTFTGYFIHWVRQAPGQGLEWMGWISPISGGTNYAQKFQGRVTVTRDTSITTAYMELSRLTSDDTAVYHCAREGGTWKGDFDYWGQGTLVTVSS VL: QSALTQPASVSGSPGQSITISCTGTSSDVESYNLVSWYQQHPGKAPKLMIYEGSKRPSGVSNRFSGSKSGNTASLTISGLQAEDEADYYCSSYAGSSTWVFGGGTKLTVLG",
    "t½ at pH 7.4 [min]": 0.4
  }
]

Look at this binder and give its reported t½ at pH 7.4. mAb14255 (antibody, V domains shown) VH: QVQLQESGPGLVKPSETLSLTCTVSGGSISGYYWSWIRQPPGKGLDWIGYIYYRGNTNYNPSLKSRVTISVDTSNNQFSLKLSSVTAADTAVYYCARYGEGYGDASGYHFDYWGQGTLVTVSS VL: QSALTQPASVSGSPGQSITISCTGTSSDVGSYNLVSWYQQHPGKAPKLMIYEDSKRPSGVANPFSGSKSGNTASLTISGLQAEDEADYYCSSYAGSSTWVFGGGTKLTVLG
2.3
